# System: SK-OV-3 ovarian
# Experiment summary: NCI tumour cell line growth inhibition, 48 h
Readout type: TGI

GET /values?readout=TGI&item= COc1ccc(C(=O)NCCC2CN(S(=O)(=O)C(F)(F)F)c3ccccc32)c(OC)c1 (stereo not given)
> 100 µM

Quick one: TGI for CC(C)NCCCC(C)Nc1ccnc2ccc3nn(C)nc3c12 (stereo not given) ?
> 100 µM

// query TGI value for entry Cn1ncc(NC(=O)c2nc(-c3c(F)cccc3F)sc2N)c1N1CC[C@@H](N)[C@H](F)CC1
6 µM

Fill in: TGI of C[C@@]1(Br)C[C@@](C)(Cl)[C@@H](Br)CC1/C=C/Cl (stereo not given in full) is ___
37 µM

Could you share which TGI value was measured for N#Cc1c(-c2ccccc2)cc(-c2ccccc2)n(CCCC(=O)NO)c1=O ?
5.23 µM

Record request: TGI value, item COC(=O)[C@@H](C)C[C@H](Cc1ccc2ccccc2c1)NC(=O)c1csc([C@@H](C[C@H](C(C)C)N(C)C(=O)[C@@H](NC(=O)[C@H]2CCCCN2C)C(C)C)OC(C)=O)n1
> 25 µM

If you can, please state the reported TGI value of Cc1nc2ccccn2c1N=Nc1ccc(C(=O)NN)cc1 .
> 100 µM

So what's the measured TGI for this one? COC1=CC(=Nc2c(Cl)cc(Cl)cc2OC(=O)c2ccc([N+](=O)[O-])cc2)C=C(OC)C1=O
30.8 µM

Quick one: TGI for CCOC(=O)C1C(O)CC2c3ccccc3-c3ccccc3C21 (stereo not given) ?
45.5 µM

Would you kindly share the measured TGI for O=C(Nc1nc(-c2ccc(Cl)cc2)cs1)c1cc(-c2ccc(Br)cc2)nc2ccc(Cl)cc12 ?
> 100 µM

Recorded TGI for O=C([O-])c1cc(I)cc(I)c1[OH2+].O=C([O-])c1cc(I)cc(I)c1[OH2+].[Mn+2] , please?
44.2 µM

# query: TGI of entry CC/C=C/C[C@H](O[Si](C)(C)C(C)(C)C)[C@H]1C[C@H]2O[C@H]([C@@H](O)C#C[Si](C)(C)C)C[C@H]2O1
28.9 µM

Would you kindly share the measured TGI for CC(C)=CCC/C(C)=C/CO ?
> 100 µM

Consider the compound Oc1ccc(O)c(Cc2ccccc2)c1 and give its measured TGI.
> 100 µM

Report TGI for COc1ccc(/C=C2\Oc3cc(OC(C)=O)ccc3C2=O)cc1 please.
> 100 µM

Suppose we examine the compound COC1=C(OC)C(O)(c2ccccc2)C1=O (stereo not given) ; what TGI value has been reported?
> 100 µM

So what's the measured TGI for this one? CC1=C(O)C(=O)C(C2=C(O)C(=O)C(C)=C(O)C2=O)=C(O)C1=O
> 100 µM

# query: TGI of entry COc1ccc(O)c(/C=N/NC(=S)N2CCCCC2)c1
> 100 µM

Could you tell me which TGI is on file for O=C(COc1nc2ccccc2nc1-c1ccccc1)Nc1ccc(Cl)cc1 ?
> 100 µM

Return reported TGI; argument: O=C(CCc1n[nH]c(=S)o1)Nc1ccc(Cl)cc1Cl
> 100 µM

----------
# Test system: COLO 205 colon
# Experiment summary: NCI tumour cell line growth inhibition, 48 h
Readout type: TGI

Reported TGI, compound CCC1(c2ccc(N3C(=O)c4ccccc4C3=O)cc2)CCC(=O)NC1=O (stereo not given) : ____
> 10 µM

What does the data say about its TGI? Entry: CNCC(=O)Nc1ccc2c(c1)C(=O)c1ccc(NC(=O)CNC)cc1C2=O
11 µM

What does the data say about its TGI? Entry: O=c1c(-c2ccccc2)c2n(c3ccccc13)CCN2
> 100 µM

I have this compound here, Cc1nn(C(=O)c2ccccc2O)c2c1C(c1ccc3ccccc3c1O)SC(N)=N2 (stereo not given) , and I need its recorded TGI.
> 10 µM

May I ask what TGI has been recorded for CN(C)c1cc[n+](/C(NS(=O)(=O)c2cc(C(=O)Nc3ccc(Cl)cc3)c(Cl)cc2[S-])=C(\C#N)C(=O)c2ccccc2)cc1 ?
> 100 µM

Fill blank: measured TGI of the compound Cc1cnc(-n2c(C)nc3cc(Cl)ccc3c2=O)s1 is ____.
40.2 µM

Need TGI, item CNc1ccccc1-c1nc2ccccc2c(=O)o1
> 100 µM

Query (compound): OC1c2ccccc2CCC1C(O)(C(F)(F)F)C(F)(F)F (stereo not given) ; field requested: TGI
> 100 µM

Using the record for CC(C)=[CH][Sb]([Br])([CH]=C(C)C)([CH]=C(C)C)[c]1ccccc1 , report its TGI.
19.2 µM

Can you look up the measured TGI of C=Cc1nc2nnc(CCCCCCCCc3nnc4nc(C=C)[nH]n34)n2[nH]1 for me?
> 100 µM

----------
For each of the molecules below, state its TGI.
# Tested on: SF-539 CNS
# Experiment summary: NCI tumour cell line growth inhibition, 48 h

Reported TGI for SF-539 CNS, given O=C1C(Cl)=C(N2C(=O)CCC2=O)C(=O)c2ccccc21 ?
> 100 µM

Return TGI measured with SF-539 CNS given this molecule: COc1cc(-c2ccc(-c3ccc(C(=N)N)cc3)s2)cc(OC)c1OC
3.03 µM

I'm curious: which TGI was measured for O=S1(=O)OCCOS(=O)(=O)C1(Br)Cc1ccccc1 tested on SF-539 CNS?
> 100 µM

State its TGI on SF-539 CNS: CCCCCCCCCCCCCCCC/C(C(=O)OC)=C(/O)C(=O)OCC
> 100 µM

Write down the reported TGI of COc1cc2ccnc(C=O)c2cc1OC , test system: SF-539 CNS.
29.7 µM

Form field: TGI recorded for COc1ccc(NC2=NCCO2)c2c1CCCC2 with SF-539 CNS (enter value)
> 100 µM

----------
Task for the reader: assign each of the following compounds its reported GI50.
# Tested on: CCRF-CEM leukemia
# Experiment summary: NCI tumour cell line growth inhibition, 48 h

For the compound shown here, CC(=O)/C=C/c1ccc(OCc2ccc(C(C)(C)C)cc2)cc1 , give the reported GI50.
> 1000 µM

Could you share which GI50 value was measured for CCO/C=N/C1=C(C#N)C(c2ccc(OC)cc2)c2sc3c(F)cccc3c2O1 (stereo not drawn) ?
2.69 µM

# GI50 lookup, item O=C([O-])c1cc(I)cc(I)c1[OH2+].O=C([O-])c1cc(I)cc(I)c1[OH2+].[Mn+2]
> 100 µM

----------
# Tested on: A498 renal
# Experiment summary: NCI tumour cell line growth inhibition, 48 h
Kindly supply the reported TGI values for the records listed here.

Suppose we examine the compound COc1cc(OC)c2c(c1-c1ccc(C)cc1)CC(C)N(Cc1ccccc1)[C@H]2C (some centres not stated) ; what TGI value has been reported?
> 100 µM

Looking for the measured TGI of O=C(N[C@@H](c1ccccc1)[C@@H](O)C(=O)OCc1ccc2c(c1)OCO2)c1ccccc1 , can you help?
> 100 µM

May I ask what TGI has been recorded for CCOC(=O)C1CCCCN1C(=O)OCc1ccccc1 (configuration not stated) ?
> 100 µM

GET /values?readout=TGI&item= O=C(c1nc2ccc(Cl)cc2[nH]c1=O)C(O)c1ccccc1 (configuration not stated)
> 100 µM

Can you look up the measured TGI of COc1ccc(O)c(/C=N/NC(=S)N2CCCCC2)c1 for me?
> 41.5 µM

Given the compound COCOc1cc(OCOC)cc(C(=O)Oc2ccccc2)c1 , what is its reported TGI?
> 100 µM

Find the recorded TGI belonging to Cn1ncc(NC(=O)c2nc(-c3c(F)cccc3F)sc2N)c1N1CC[C@@H](N)[C@H](F)CC1 and report it.
7.55 µM

----------
For each record, write down the corresponding TGI.
# Tested on: SN12C renal
# Experiment summary: NCI tumour cell line growth inhibition, 48 h

Requested read-out: TGI. Entry: COC1/C=C\C=C(/C)C(=O)NC2=CC(=O)C(N)=C(CC(C)CC(OC)C(O)C(C)C=C(C)C1OC(N)=O)C2=O (centres undefined)
29 µM

Recorded TGI for CC(N)Cc1ccc(F)cc1 (centres undefined) , please?
> 100 µM

Bench note: what TGI did CN(C)c1cc[n+](/C(NS(=O)(=O)c2cc(C(=O)Nc3ccc(Cl)cc3)c(Cl)cc2[S-])=C(\C#N)C(=O)c2ccccc2)cc1 show?
> 100 µM

For the compound shown here, c1ccc([P+](c2ccccc2)(c2ccccc2)c2ccc3c4ccc([P+](c5ccccc5)(c5ccccc5)c5ccccc5)c5cccc(c6cccc2c63)c54)cc1 , give the reported TGI.
13.7 µM

Can you look up the measured TGI of Clc1ccc2c(c1)C(Br)c1cc(Cl)cc(Cl)c1-2 (centres undefined) for me?
> 100 µM

Name the reported TGI value associated with the compound O=c1c(-c2ccccc2)c2n(c3ccccc13)CCN2
> 100 µM

Which TGI is listed for CCOC(=O)/C=C(/C(=O)OCC)n1cc(C)c(=O)n(/C(=C/C(=O)OCC)C(=O)OCC)c1=O ?
8.58 µM

Consider the compound shown here: CCn1cc(C(=O)O)c(=O)c2cc(F)c(N3CCN(CN4C(=O)/C(=N\c5ncc(Cc6cc(OC)c(OC)c(OC)c6)c(N)n5)c5cc(Cl)ccc54)CC3)cc21 What is its recorded TGI?
> 100 µM

Please report the recorded TGI for CCC(=O)/C=C/c1ccccc1 .
> 100 µM

These data points were gathered from PubChem BioAssay (NCI).
